Where do the numbers come from? From patent US12467085B2.

- tested on: Phi29-type DNA polymerase (Bacillus phage phi29)
- Sequence (P03680 whole entry): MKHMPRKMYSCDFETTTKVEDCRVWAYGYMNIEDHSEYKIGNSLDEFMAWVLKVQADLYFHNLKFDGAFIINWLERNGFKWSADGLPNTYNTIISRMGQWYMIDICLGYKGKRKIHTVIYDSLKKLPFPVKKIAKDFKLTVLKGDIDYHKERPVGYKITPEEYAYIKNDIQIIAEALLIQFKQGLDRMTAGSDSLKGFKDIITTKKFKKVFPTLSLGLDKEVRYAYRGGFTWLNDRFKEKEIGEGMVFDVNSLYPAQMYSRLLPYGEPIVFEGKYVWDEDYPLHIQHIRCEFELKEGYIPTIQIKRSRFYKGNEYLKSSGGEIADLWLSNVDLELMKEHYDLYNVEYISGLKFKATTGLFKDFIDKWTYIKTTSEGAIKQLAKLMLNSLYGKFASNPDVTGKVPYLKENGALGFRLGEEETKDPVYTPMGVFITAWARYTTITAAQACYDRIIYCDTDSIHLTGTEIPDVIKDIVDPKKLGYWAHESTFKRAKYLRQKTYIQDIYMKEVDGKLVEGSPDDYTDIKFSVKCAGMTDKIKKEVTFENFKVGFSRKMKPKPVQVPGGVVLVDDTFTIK
- protocol notes: Dissociation constants of nucleotides with polymerase by fluorescence assays
- Format: binding
- condition label: fluorescence assays; natural and unincorporable nucleotides
- Excerpt: Disclosed herein is a determination of a number of enzymatic parameters including substrate binding and dissociation constants (examples in Table 1) under a variety of conditions and with a variety of nucleotide analogs (NTPs, N6Ps, tagged N6Ps, α-thio and α,β-methylene nucleotide polyphosphates). […]
# Lookup of reported Kd keyed by entry
Respond with the bare value in nM.

Solved cases (2 shown):
• Nc1nc2c(ncn2C2CC(O)C(COP(=O)(O)OP(=O)(O)OP(=O)(O)O)O2)c(=O)[nH]1 (stereo not shown) [dGTP, reference compound] = 6
• Nc1nc2c(ncn2C2CC(O)C(COP(O)(=S)OP(=O)(O)OP(=O)(O)O)O2)c(=O)[nH]1 (stereo not drawn) [2′-dGTP-αS (Rp-isomer), 2′-dGTP-αS] = 910

Consider the additional compound presented here.
Give the value of Kd reported for the following: Nc1nc2c(ncn2C2CC(O)C(COP(O)(=S)OP(=O)(O)OP(=O)(O)O)O2)c(=O)[nH]1 (stereo not drawn) [2′-dGTP-αS (Sp-isomer), 2′-dGTP-αS] 6
